# assay.summary: Therapeutic index, ratio of IC50 for BALB/c mouse peritoneal macrophages to IC50 for promastigote form of Leishmania major (MHOM/IL/81/BNI)
# cond: read-out: Ratio IC50
metric.name: selectivity ratio
Quick one: just the number, no unit, thanks!

Just so you know, measured selectivity ratio for c1ccc(-c2nc3c(NCCN4CCOCC4)nccn3c2-c2ccncc2)cc1 came out at 2.2

Just so you know, measured selectivity ratio for Ic1c(-c2ccccc2)nc2c(NCCN3CCOCC3)nccn12 came out at 3

Just so you know, measured selectivity ratio for CN(C)c1nccn2c(-c3ccncc3)c(-c3ccccc3)nc12 came out at 4.6

Just so you know, measured selectivity ratio for Fc1ccc(-c2nc3c(NCCN4CCOCC4)nccn3c2-c2ccncc2)cc1 came out at 2.4

Just so you know, measured selectivity ratio for c1ccc(-c2nc3cnccn3c2-c2ccccc2)cc1 came out at 1.6

---

Reported GI50 at 48 h values for the following compounds.
# assay.summary: Cytotoxicity against human K562 cells assessed as growth inhibition after 48 hrs by Coulter counter cell counting
Expressed in µg/mL, but write only the number.

Answered examples (8):
>  <structure.smiles.string>
O=c1[nH]cc(F)c(=O)[nH]1

>  <measured.result>
0.9

$$$$
>  <structure.smiles.string>
CN(C)CCNc1nccn2c(I)c(-c3ccccc3)nc12

>  <measured.result>
5

$$$$
>  <structure.smiles.string>
CN(C)CCNc1nccn2c(-c3ccncc3)c(-c3ccccc3)nc12

>  <measured.result>
15

$$$$
>  <structure.smiles.string>
Ic1c(-c2ccccc2)nc2c(NCCN3CCOCC3)nccn12

>  <measured.result>
18

$$$$
>  <structure.smiles.string>
CN(C)CCNc1nccn2c(I)c(-c3ccc(F)cc3)nc12

>  <measured.result>
43

$$$$
>  <structure.smiles.string>
CN(C)CCNc1nccn2c(-c3ccncc3)c(-c3ccc(F)cc3)nc12

>  <measured.result>
14

$$$$
>  <structure.smiles.string>
CN(C)c1nccn2c(I)c(-c3ccccc3)nc12

>  <measured.result>
16

$$$$
>  <structure.smiles.string>
Fc1ccc(-c2nc3c(NCCN4CCOCC4)nccn3c2-c2ccncc2)cc1

>  <measured.result>
21

$$$$

Lab note: next compound to report on.
Just so you know, measured GI50 at 48 h for CN(C)c1nccn2c(-c3ccncc3)c(-c3ccccc3)nc12 came out at 48

---

Reported log10 GI50 at 48 h values for the following compounds.
# assay.summary: Cytotoxicity against human MCF7 cells assessed as growth inhibition after 48 hrs by SRB assay method
# Assay type: cell-based
On a log10 scale: recorded GI50 at 48 h, unit µg/mL.

Answered examples (5):
>  <compound>
CN(C)CCNc1nccn2c(-c3ccncc3)c(-c3ccc(F)cc3)nc12

>  <log10 GI50 at 48 h>
0.90

$$$$
>  <compound>
CN(C)CCNc1nccn2c(I)c(-c3ccccc3)nc12

>  <log10 GI50 at 48 h>
0.95

$$$$
>  <compound>
CN(C)c1nccn2c(-c3ccncc3)c(-c3ccc(F)cc3)nc12

>  <log10 GI50 at 48 h>
1.72

$$$$
>  <compound>
CN(C)c1nccn2c(I)c(-c3ccc(F)cc3)nc12

>  <log10 GI50 at 48 h>
0.48

$$$$
>  <compound>
O=c1[nH]cc(F)c(=O)[nH]1 [FLUOROURACIL]

>  <log10 GI50 at 48 h>
-0.52

$$$$

Just so you know, measured log10 GI50 at 48 h for Fc1ccc(-c2nc3c(NCCN4CCOCC4)nccn3c2-c2ccncc2)cc1 came out at 1.28

Just so you know, measured log10 GI50 at 48 h for Ic1c(-c2ccccc2)nc2c(NCCN3CCOCC3)nccn12 came out at 1.46

Just so you know, measured log10 GI50 at 48 h for CN(C)c1nccn2c(-c3ccncc3)c(-c3ccccc3)nc12 came out at 1.51

Just so you know, measured log10 GI50 at 48 h for CN(C)CCNc1nccn2c(I)c(-c3ccc(F)cc3)nc12 came out at 0.70

Just so you know, measured log10 GI50 at 48 h for CN(C)c1nccn2c(I)c(-c3ccccc3)nc12 came out at 0.48

Just so you know, measured log10 GI50 at 48 h for CN(C)CCNc1nccn2c(-c3ccncc3)c(-c3ccccc3)nc12 came out at 0.78

---

# assay.summary: Inhibition of native porcine brain CK1 delta/epsilon using RRKHAAIGpSAYSITA as substrate and [gamma-33P]ATP after 30 mins by scintillation counting
# Parameters: species or system Sus scrofa
Reported pIC50 values for the following compounds.
For clarity, pIC50 is expressed as the negative log10 of concentration in mol/L.

>  <structure.smiles.string>
Fc1ccc(-c2nc3c(NCCN4CCOCC4)nccn3c2-c2ccncc2)cc1

>  <measured.result>
5.57

$$$$
>  <structure.smiles.string>
c1ccc(-c2nc3c(NCCN4CCOCC4)nccn3c2-c2ccncc2)cc1

>  <measured.result>
5.48

$$$$
>  <structure.smiles.string>
CN(C)CCNc1nccn2c(-c3ccncc3)c(-c3ccccc3)nc12

>  <measured.result>
5.80

$$$$

Just so you know, measured pIC50 for CN(C)c1nccn2c(-c3ccncc3)c(-c3ccc(F)cc3)nc12 came out at 5.68

---

# assay.summary: Cytotoxicity against human HT-29 cells assessed as growth inhibition after 48 hrs by SRB assay method
# Assay type: cell-based
metric.name: GI50 at 48 h

Answered examples (3):
>  <structure.smiles.string>
CN(C)c1nccn2c(I)c(-c3ccc(F)cc3)nc12

>  <GI50 at 48 h>
> 125 µg/mL

$$$$
>  <structure.smiles.string>
CN(C)c1nccn2c(-c3ccncc3)c(-c3ccc(F)cc3)nc12

>  <GI50 at 48 h>
> 125 µg/mL

$$$$
>  <structure.smiles.string>
Fc1ccc(-c2nc3c(NCCN4CCOCC4)nccn3c2I)cc1

>  <GI50 at 48 h>
> 125 µg/mL

$$$$

Lab note: next compound to report on.
Just so you know, measured GI50 at 48 h for CN(C)c1nccn2c(I)c(-c3ccccc3)nc12 came out at 38 µg/mL

---

# assay.summary: Inhibition of Leishmania major CK1.2 using RRKHAAIGpSAYSITA as substrate and [gamma-33P]ATP after 30 mins by scintillation counting
pIC50: −log10 of the molar value.
metric.name: pIC50

Answered examples (2):
>  <structure.smiles.string>
CN(C)CCNc1nccn2c(I)c(-c3ccc(F)cc3)nc12

>  <pIC50>
< 5.00

$$$$
>  <structure.smiles.string>
COc1ccc(-c2c(-c3ccccc3)nc3cnccn23)cc1

>  <pIC50>
< 5.00

$$$$

Lab note: next molecule to report on.
Just so you know, measured pIC50 for CN(C)c1nccn2c(I)c(-c3ccccc3)nc12 came out at < 5.00

---

# assay.summary: Therapeutic index, ratio of IC50 for BALB/c mouse peritoneal macrophages to IC50 for promastigote form of Leishmania major (MHOM/IL/81/BNI)
# cond: read-out: Ratio IC50
metric.name: selectivity ratio

>  <structure.smiles.string>
Clc1cc(Cl)cc(-c2c(-c3ccccc3)nc3cnccn23)c1

>  <measured.result>
3.4

$$$$

Just so you know, measured selectivity ratio for CCOC(=O)c1ccc(-c2c(-c3ccccc3)nc3cnccn23)cc1 came out at 2.9

Just so you know, measured selectivity ratio for O=[N+]([O-])c1ccc(-c2c(-c3ccccc3)nc3cnccn23)cc1 came out at 4.2

---

Reported GI50 at 48 h values for the following compounds.
# assay.summary: Cytotoxicity against human K562 cells assessed as growth inhibition after 48 hrs by Coulter counter cell counting

>  <structure.smiles.string>
CN(C)c1nccn2c(I)c(-c3ccc(F)cc3)nc12

>  <GI50 at 48 h>
> 125 µg/mL

$$$$
>  <structure.smiles.string>
Fc1ccc(-c2nc3c(NCCN4CCOCC4)nccn3c2I)cc1

>  <GI50 at 48 h>
> 125 µg/mL

$$$$

Lab note: next compound to report on.
Just so you know, measured GI50 at 48 h for CN(C)c1nccn2c(-c3ccncc3)c(-c3ccc(F)cc3)nc12 came out at > 125 µg/mL

---

# assay.summary: Cytotoxicity against human HT-29 cells assessed as growth inhibition after 48 hrs by SRB assay method
# Type: cell-based
metric.name: GI50 at 48 h (µg/mL)
Expressed in µg/mL, but write only the number.

Answered examples (2):
>  <structure.smiles.string>
Fc1ccc(-c2nc3c(NCCN4CCOCC4)nccn3c2-c2ccncc2)cc1

>  <GI50 at 48 h / µg/mL>
27

$$$$
>  <structure.smiles.string>
CN(C)c1nccn2c(-c3ccncc3)c(-c3ccccc3)nc12

>  <GI50 at 48 h / µg/mL>
56

$$$$

Lab note: next compound to report on.
Just so you know, measured GI50 at 48 h for O=c1[nH]cc(F)c(=O)[nH]1 came out at 0.4

Reference for the values: ChEMBL document CHEMBL3632541
